Experiment: PK of compound of Formula (Ia) after single subcutaneous dose of solution formulations in Wistar Han rats
Format: in vivo
Details: male, Wistar Han, rat, plasma, sc, 50 mg/kg, Wistar Han rats, SC 50 mg/kg, 400 mg/mL solution AA (6.25% poloxamer 188), 96.0 h, Mean n = 4
Metric Name: concentration at 96 h (nM)
Number only, in nM; omit the unit.

Inquiry: Fill blank: measured concentration at 96 h of the compound CC(C)(C#Cc1ccc(-c2ccc(Cl)c3c(NS(C)(=O)=O)nn(CC(F)(F)F)c23)c([C@H](Cc2cc(F)cc(F)c2)NC(=O)Cn2nc(C(F)(F)F)c3c2C(F)(F)[C@@H]2C[C@H]32)n1)S(C)(=O)=O is ____.
Reply text: 201

###

Assay: PK of compound of Formula (Ia) after single subcutaneous dose of solution formulations in Wistar Han rats
Format: in vivo
Details: male, Wistar Han, rat, plasma, sc, 50 mg/kg, Wistar Han rats, SC 50 mg/kg, 400 mg/mL solution Z (3.13% poloxamer 188), 3696 h, Mean (#2 NS)
Metric Name: concentration at 3696 h (nM)
Please state the figure in nM; there is no need to write the unit.

Inquiry: Please report the recorded concentration at 3696 h for CC(C)(C#Cc1ccc(-c2ccc(Cl)c3c(NS(C)(=O)=O)nn(CC(F)(F)F)c23)c([C@H](Cc2cc(F)cc(F)c2)NC(=O)Cn2nc(C(F)(F)F)c3c2C(F)(F)[C@@H]2C[C@H]32)n1)S(C)(=O)=O .
Reply text: 135

###

Assay: PK of compound of Formula (Ia) after single subcutaneous dose of solution formulations in beagle dogs
Format: in vivo
Settings: male, beagle, dog, plasma, sc, 12 mg/kg, mean ± SD, n = 3 dogs; SC 12 mg/kg; solution T, 400 mg/mL; read-out: AUC0-672 h
Metric Name: AUC(0-t) (µM·h)
Note: unit µM·h is implicit; provide only the numeric part.

Inquiry: I would be grateful if you could share the reported AUC(0-t) for CC(C)(C#Cc1ccc(-c2ccc(Cl)c3c(NS(C)(=O)=O)nn(CC(F)(F)F)c23)c([C@H](Cc2cc(F)cc(F)c2)NC(=O)Cn2nc(C(F)(F)F)c3c2C(F)(F)[C@@H]2C[C@H]32)n1)S(C)(=O)=O .
Reply text: 148

###

Assay: PK of compound of Formula (Ia) after single subcutaneous dose of solution formulations in Wistar Han rats
Type: in vivo
Conditions: male, Wistar Han, rat, plasma, sc, 50 mg/kg, Wistar Han rats, SC 50 mg/kg, 400 mg/mL solution Y (water, PEG 300), 2016 h, Mean n = 4
Metric Name: concentration at 2016 h

Inquiry: Given CC(C)(C#Cc1ccc(-c2ccc(Cl)c3c(NS(C)(=O)=O)nn(CC(F)(F)F)c23)c([C@H](Cc2cc(F)cc(F)c2)NC(=O)Cn2nc(C(F)(F)F)c3c2C(F)(F)[C@@H]2C[C@H]32)n1)S(C)(=O)=O , state its recorded concentration at 2016 h.
Reply text: 117 nM

###

Assay: PK of compound of Formula (Ia) after single subcutaneous dose of solution formulations in Wistar Han rats
Assay type: in vivo
Conditions: male, Wistar Han, rat, plasma, sc, 50 mg/kg, 168 h; mean, n = 5 rats; SC 50 mg/kg; solution U, 500 mg/mL
Metric Name: concentration at 168 h (µM)
Number only, in µM; omit the unit.

Inquiry: Given the compound CC(C)(C#Cc1ccc(-c2ccc(Cl)c3c(NS(C)(=O)=O)nn(CC(F)(F)F)c23)c([C@H](Cc2cc(F)cc(F)c2)NC(=O)Cn2nc(C(F)(F)F)c3c2C(F)(F)[C@@H]2C[C@H]32)n1)S(C)(=O)=O , what is its reported concentration at 168 h?
Reply text: 0.154
